STUDY SYSTEM: hERG (human Ether-a-go-go Related Gene) (Homo sapiens (Human), UniProt Q12809)
Sequence (Q12809 whole entry): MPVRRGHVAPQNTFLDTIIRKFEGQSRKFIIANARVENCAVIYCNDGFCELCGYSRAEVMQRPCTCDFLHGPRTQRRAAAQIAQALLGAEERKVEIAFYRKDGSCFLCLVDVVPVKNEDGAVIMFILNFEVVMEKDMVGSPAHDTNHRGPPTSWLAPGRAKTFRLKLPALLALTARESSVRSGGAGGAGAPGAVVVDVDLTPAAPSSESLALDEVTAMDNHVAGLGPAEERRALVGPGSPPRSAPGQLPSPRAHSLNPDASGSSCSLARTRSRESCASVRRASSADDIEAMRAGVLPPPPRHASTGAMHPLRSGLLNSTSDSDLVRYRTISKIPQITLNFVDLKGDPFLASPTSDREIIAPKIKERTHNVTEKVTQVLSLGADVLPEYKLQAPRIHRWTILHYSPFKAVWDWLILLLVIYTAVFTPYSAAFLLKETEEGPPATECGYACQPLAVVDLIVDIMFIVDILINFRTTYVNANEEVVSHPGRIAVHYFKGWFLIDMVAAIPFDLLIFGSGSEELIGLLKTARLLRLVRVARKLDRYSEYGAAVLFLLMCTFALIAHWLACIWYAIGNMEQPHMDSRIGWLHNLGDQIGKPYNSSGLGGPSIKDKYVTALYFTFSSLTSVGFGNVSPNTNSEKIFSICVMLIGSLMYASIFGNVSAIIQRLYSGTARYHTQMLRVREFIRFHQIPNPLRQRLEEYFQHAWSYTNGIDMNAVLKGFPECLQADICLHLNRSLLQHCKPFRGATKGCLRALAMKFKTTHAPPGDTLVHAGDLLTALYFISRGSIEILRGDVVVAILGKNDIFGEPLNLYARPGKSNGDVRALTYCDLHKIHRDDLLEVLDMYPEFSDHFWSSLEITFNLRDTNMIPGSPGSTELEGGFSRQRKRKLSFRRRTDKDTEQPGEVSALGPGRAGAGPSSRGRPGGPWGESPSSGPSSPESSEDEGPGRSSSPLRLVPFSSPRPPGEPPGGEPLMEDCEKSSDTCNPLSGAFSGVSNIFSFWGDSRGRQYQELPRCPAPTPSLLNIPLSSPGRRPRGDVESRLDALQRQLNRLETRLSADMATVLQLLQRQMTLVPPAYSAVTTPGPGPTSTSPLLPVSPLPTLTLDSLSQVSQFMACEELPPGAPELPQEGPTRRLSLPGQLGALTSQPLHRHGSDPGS
METHOD SUMMARY: Test 4: hERG inhibition (QPatch HT, CHO cells stably expressing hERG)
pIC50: −log10 of the molar value.
ATTRIBUTE MEASURED: pIC50

Example results:
[
  {
    "MOLECULE": "CC(C)N(C(=O)c1cc(F)ccc1Oc1cncnc1N1CC2(CN(C(=O)[C@H]3N[C@H]4CC[C@@H]3[C@@H](F)C4)C2)C1)C(C)C [Example 10]",
    "ATTRIBUTE MEASURED": "pIC50",
    "RESULT": "< 5.00"
  },
  {
    "MOLECULE": "CC(C)N(C(=O)c1cc(F)ccc1Oc1cncnc1N1CC2(CCN(C(=O)[C@H]3N[C@@H]4CC[C@H]3C4)CC2)C1)C(C)C [Example 16]",
    "ATTRIBUTE MEASURED": "pIC50",
    "RESULT": "< 4.00"
  }
]

From here, focus on the item given below.
Look at this molecule and give its reported pIC50. CC(C)N(C(=O)c1cc(F)ccc1Oc1cncnc1N1CC2(CCN(C(=O)[C@H]3N[C@H]4CC[C@@H]3C(=O)C4)CC2)C1)C(C)C [Example 12]
< 4.00
